- System: AS120
- assay.name: qHTS profiling for inhibitors of Plasmodium falciparum proliferation (AID 504749); note: nearly all actives have a fitted effect of over 60% in size
- conditions: P. falciparum in erythrocytes, SYBR Green DNA, 72 h; series mostly up to 28.7 µM
Inconclusive results are not listed. Active and inactive are the calls of the source. Calls come from the whole dose curve; as a rule, active = well fitted inhibition curve with a large enough effect; inconclusive = small, poorly fitted or top-dose-only effect; inactive = flat fitted curve, though single readings scatter.
Classes used: 1.0 for active, 0.0 for inactive

> print(dat)
                                    compound  class.name
 1              Cc1ccc(O)c(-n2nc3ccccc3n2)c1         0.0
 2  CN1[C@@H]2CC[C@H]1CC(OC(c1ccccc1)c1ccccc1)C2 (stereo not given in full)         1.0
 3  C[S+](CC[C@H](N)C(=O)O)C[C@H]1O[C@@H](n2cnc3c(N)ncnc32)[C@H](O)[C@@H]1O (stereo not given in full)         0.0
 4                CCCCCCCCCCCCCCCC(=O)OC(C)C         0.0
 5  COC(=O)C1=C(C)NC(C)=C(C(=O)OCC(C)C)C1c1ccccc1[N+](=O)[O-] (stereo not given)         1.0
 6      O=C(O)COc1ccc(C(=O)c2cccs2)c(Cl)c1Cl         0.0
 7                   CCCCCCCCCCCCCCCCCC(=O)O         0.0
 8  O=C(O)/C=C/C(O)c1ccc(Cl)cc1 (stereo not given)         0.0
 9  CN1[C@@H](CC(=O)c2ccccc2)CCC[C@H]1C[C@H](O)c1ccccc1         1.0
10              CCOc1ccc2nc(S(N)(=O)=O)sc2c1         0.0
11         O=C(O)c1ccccc1Nc1cccc(C(F)(F)F)c1         0.0
12  CC1(C)C[C@@H]1C(=O)N/C(=C\CCCCSC[C@H](N)C(=O)O)C(=O)O         0.0
13                   O=C(OCc1ccccc1)c1ccccc1         0.0
14  COc1cc2c3cc1Oc1cc(ccc1O)C[C@@H]1c4c(cc(OC)c(O)c4Oc4ccc(cc4)C[C@@H]3N(C)CC2)CC[N+]1(C)C         0.0
15       Nc1c(CC(=O)O)cccc1C(=O)c1ccc(Br)cc1         0.0
16                    O=C(/C=C/c1ccccc1)NCCO         0.0
17  CCC1C(=O)OCC1Cc1cncn1C (stereo not given)         0.0
18                      Nc1ccc(C(=O)O)c(O)c1         0.0
19  CCCCC[C@H](O)/C=C/[C@@H]1[C@@H](C/C=C\CCCC(=O)O)[C@@H](O)C[C@H]1O         0.0
20                O=C(O)Cc1ccc(-c2ccccc2)cc1         0.0
21            c1ccc2sc(SSc3nc4ccccc4s3)nc2c1         0.0
22                   O=C(O)c1cc(O)c(O)c(O)c1         0.0
23  Cc1ccccc1CNc1ncnc2c1ncn2C1OC(CO)C(O)C1O (stereo not given)         0.0
24                  COc1ccc(-c2cc(=S)ss2)cc1         0.0
25                      CCCOC(=O)c1ccc(O)cc1         0.0

###

- Tested on: Es-2
- assay.name: Primary qHTS to identify gynecologic anti-cancer compounds using libraries of approved drugs and bioactive compounds (AID 1345084); note: nearly all actives have a fitted effect of over 55% in size
- conditions: Gynecologic cancer cell panel viability, ATPlite luminescence, 48 h; series mostly up to 57.5 µM
Results filed as inconclusive are left out. Activity calls are given as the source filed them. The call rests on the fitted dose curve; in most records, active means well fitted cell-killing curve with a large enough effect; inconclusive means small, poorly fitted or top-dose-only effect, or effect the other way; inactive means flat fitted curve, though single readings scatter.
Outcome codes: active, inactive

> print(dat)
                                    compound  class.name
 1  CC1(C)S[C@@H]2[C@H](NC(=O)[C@H](N)c3ccc(O)cc3)C(=O)N2[C@H]1C(=O)O    inactive
 2  CN1[C@@H]2CC[C@H]1CC(OC(c1ccccc1)c1ccccc1)C2 (some centres undefined)    inactive
 3  Cc1c(C(=O)O)c(O)cc2c1C(=O)c1c(O)c([C@@H]3O[C@H](CO)[C@@H](O)[C@H](O)[C@H]3O)c(O)c(O)c1C2=O    inactive
 4                   O=C(OCc1ccccc1)c1ccccc1    inactive
 5  Cc1ccc2c(n1)Oc1ccc(C(C)C(=O)OCC(=O)N(C)C)cc1C2 (centres undefined)    inactive
 6  CC(=O)SCC(CC(=O)c1ccc(C)cc1)C(=O)O (centres undefined)    inactive
 7       Nc1c(CC(=O)O)cccc1C(=O)c1ccc(Br)cc1    inactive
 8  CS(=O)(=O)c1ccc(-n2nc(C(F)(F)F)cc2-c2ccc(F)cc2)cc1    inactive
 9                      CCCOC(=O)c1ccc(O)cc1    inactive
10                    O=C(/C=C/c1ccccc1)NCCO    inactive
11  C[C@H](O)[C@H](O)[C@H]1CNc2nc(N)[nH]c(=O)c2N1    inactive
12                                      NCCO    inactive
13      Cc1[nH]cnc1CN1CCc2c(c3ccccc3n2C)C1=O    inactive
14  O=C1CN(/N=C/c2ccc([N+](=O)[O-])o2)C(=O)N1    inactive
15        COc1cc(CNC(=O)CCCC/C=C/C(C)C)ccc1O    inactive
16                         CCOC(=O)c1ccccc1O    inactive
17                   CCCCCCCCCCCCCCCCCC(=O)O    inactive
18  CCCC(=O)OC[C@@H](OC(=O)CCC)[C@@H](OC(=O)CCC)[C@H](Cn1c2nc(=O)[nH]c(=O)c-2nc2cc(C)c(C)cc21)OC(=O)CCC    inactive
19  CC(C(=O)O)c1ccc(C(=O)c2ccccc2)s1 (centres undefined)    inactive
20                        S=c1[nH]c2ccccc2s1    inactive
21              Nc1nc2ccc([N+](=O)[O-])cc2s1    inactive
22      COC(=O)Nc1nc2ccc(C(=O)C3CC3)cc2[nH]1      active
23        O=C(O)Cc1ccc2c(c1)C(=O)c1ccccc1CO2    inactive
24        Cc1c(Nc2ncccc2C(=O)O)cccc1C(F)(F)F    inactive
25       CN(CCCOc1ccc(Cc2ccccc2)cc1)CCC(=O)O    inactive
26              Cc1ccc(O)c(-n2nc3ccccc3n2)c1    inactive
27  CNC(=O)c1c(I)c(NC(=O)CCCCC(=O)Nc2c(I)c(C(=O)O)c(I)c(C(=O)NC)c2I)c(I)c(C(=O)O)c1I    inactive
28  COc1cc(/C=C/C(=O)N2CCN(CC(=O)N3CCCC3)CC2)cc(OC)c1OC    inactive
29  CN(C)CCn1nnnc1SCC1=C(C(=O)O)N2C(=O)[C@@H](NC(=O)Cc3csc(N)n3)[C@H]2SC1    inactive
30              CN(C)c1ccc(N=NS(=O)(=O)O)cc1    inactive
31            CCCSc1ccc2nc(NC(=O)OC)[nH]c2c1      active
32  CC(C(=O)O)c1ccc2c(c1)[nH]c1ccc(Cl)cc12 (centres undefined)    inactive
33                        O=Cc1ccc(O)c(O)c1O    inactive
34  CC1(C)[C@@H](O)CC[C@]2(C)[C@H]3C(=O)C=C4[C@@H]5C[C@@](C)(C(=O)O)CC[C@]5(C)CC[C@@]4(C)[C@]3(C)CC[C@@H]12    inactive

###

- test.system: Single-stranded DNA cytosine deaminase (Homo sapiens)
- assay.name: Validation qHTS assay for inhibitors of Activation Induced Cytidine Deaminase (AID): AID signal (AID 1347429)
- conditions: Recombinant AID, FRET ssDNA deamination with UDG, fluorescence; series mostly up to 115 µM
Active and inactive are the calls of the source. Calls follow the shape of the dose curve; as a rule, active = well fitted inhibition curve with a large enough effect; inconclusive = small, poorly fitted or top-dose-only effect; inactive = no such curve, though single readings can be large or run the other way.
outcome.measure: outcome

> print(dat)
                                    molecule  outcome.measure  assay.result
 1           CC(=O)N[C@H](C(=O)O)C(C)(C)SN=O          outcome      inactive
 2             CCCC1(C)C(C#N)(C#N)C1(C#N)C#N          outcome      inactive
 3  O=C(CCCCCN1CCN(c2ccccc2-c2ccccc2)CC1)NC1CCCc2ccccc21 (configuration not stated)          outcome      inactive
 4              NCCNC(=O)c1ncsc1-c1cccc(F)c1          outcome      inactive
 5         O=C(/C=C/c1ccc(O)cc1)c1ccc(O)cc1O          outcome      inactive
 6  CC(C)(C=O)Cc1cc(C(C)(C)C)c(O)c(C(C)(C)C)c1          outcome      inactive
 7  COc1cc(C(O)CO)ccc1OS(=O)(=O)O (configuration not stated)          outcome      inactive
 8         O=C1NC(=O)/C(=C/c2ccc3nccnc3c2)S1          outcome      inactive
 9  Cc1ccccc1CNc1ncnc2c1ncn2C1OC(CO)C(O)C1O (configuration not stated)          outcome      inactive
10   Fc1ccc(C(OCCCc2cnc[nH]2)c2ccc(F)cc2)cc1          outcome      inactive
11  CCC1C(=O)OCC1Cc1cncn1C (configuration not stated)          outcome      inactive
12  CC(N)C(=O)OC(C)(C)Cc1ccc(Cl)cc1 (configuration not stated)          outcome      inactive
